Test: GLP 28-day oral toxicology study of compound A22 in Sprague Dawley rats
Type: in vivo
Conditions: rat, in vivo, once daily oral gavage, di-HCl or di-p-toluenesulfonate salt, read-out: NOAEL (no-observed-adverse-effect-level) dose
REPORTED_METRIC: NOAEL at 28 day (mg/kg/day)
Give bare numbers, in mg/kg/day.

Lookup: Bench note: what NOAEL at 28 day did "Cn1ncc(-c2nc(N[C@H]3CC[C@H](N)CC3)ncc2Cl)c1CC1CC1" show?
Found: 0.7

====

Assay: Steady state toxicokinetics of compound A22 in Beagle dogs (28-day study)
Details: dog, in vivo, male dogs, 0.06 mg/kg/day (NOAEL), oral gavage
REPORTED_METRIC: AUC(0-t) (ng·h/mL)
Give bare numbers, in ng·h/mL.

Lookup: Bench note: what AUC(0-t) did "Cn1ncc(-c2nc(N[C@H]3CC[C@H](N)CC3)ncc2Cl)c1CC1CC1" show?
Found: 102

====

Assay: Steady state toxicokinetics of compound A22 in Sprague Dawley rats (28-day study)
Conditions: rat, in vivo, female rats, 2.5 mg/kg/day (STD10), oral gavage
REPORTED_METRIC: AUC(0-t) (ng·h/mL)
One number for each entry, in ng·h/mL.

Lookup: Bench note: what AUC(0-t) did "Cn1ncc(-c2nc(N[C@H]3CC[C@H](N)CC3)ncc2Cl)c1CC1CC1" show?
Found: 2390

====

Test: Steady state toxicokinetics of compound A22 in Sprague Dawley rats (28-day study)
Conditions: rat, in vivo, male rats, 2.5 mg/kg/day (STD10), oral gavage
REPORTED_METRIC: Cmax (ng/mL)
Numbers only, in ng/mL.

Lookup: Bench note: what Cmax did "Cn1ncc(-c2nc(N[C@H]3CC[C@H](N)CC3)ncc2Cl)c1CC1CC1" show?
Found: 184

====

Assay: Steady state toxicokinetics of compound A22 in Sprague Dawley rats (28-day study)
Conditions: rat, in vivo, male rats, 0.7 mg/kg/day (NOAEL), oral gavage
REPORTED_METRIC: Cmax (ng/mL)
Give bare numbers, in ng/mL.

Lookup: Bench note: what Cmax did "Cn1ncc(-c2nc(N[C@H]3CC[C@H](N)CC3)ncc2Cl)c1CC1CC1" show?
Found: 13.7

====

Experiment: GLP 28-day oral toxicology study of compound A22 in Beagle dogs
Assay type: in vivo
Conditions: dog, in vivo, once daily oral gavage, di-HCl or di-p-toluenesulfonate salt, read-out: NOAEL (no-observed-adverse-effect-level) dose
REPORTED_METRIC: NOAEL at 28 day (mg/kg/day)
Give bare numbers, in mg/kg/day.

Lookup: Bench note: what NOAEL at 28 day did "Cn1ncc(-c2nc(N[C@H]3CC[C@H](N)CC3)ncc2Cl)c1CC1CC1" show?
Found: 0.06

====

Experiment: Steady state toxicokinetics of compound A22 in Beagle dogs (28-day study)
Conditions: dog, in vivo, female dogs, 0.2 mg/kg/day (HNSTD), oral gavage
REPORTED_METRIC: Cmax
Returns: string containing the number followed by the unit.

Lookup: Bench note: what Cmax did "Cn1ncc(-c2nc(N[C@H]3CC[C@H](N)CC3)ncc2Cl)c1CC1CC1" show?
Found: 30.6 ng/mL

====

Test: Steady state toxicokinetics of compound A22 in Beagle dogs (28-day study)
Conditions: dog, in vivo, female dogs, 0.06 mg/kg/day (NOAEL), oral gavage
REPORTED_METRIC: Cmax (ng/mL)
Give bare numbers, in ng/mL.

Lookup: Bench note: what Cmax did Cn1ncc(-c2nc(N[C@H]3CC[C@H](N)CC3)ncc2Cl)c1CC1CC1 [A22] show?
Found: 7.55

====

Assay: Steady state toxicokinetics of compound A22 in Beagle dogs (28-day study)
Settings: dog, in vivo, male dogs, 0.06 mg/kg/day (NOAEL), oral gavage
REPORTED_METRIC: Cmax (ng/mL)
Give bare numbers, in ng/mL.

Lookup: Bench note: what Cmax did "Cn1ncc(-c2nc(N[C@H]3CC[C@H](N)CC3)ncc2Cl)c1CC1CC1" show?
Found: 6.38

====

Assay: Steady state toxicokinetics of compound A22 in Beagle dogs (28-day study)
Details: dog, in vivo, male dogs, 0.2 mg/kg/day (HNSTD), oral gavage
Description: The toxicology studies of compound A22 were performed in Sprague Dawley rats and Beagle dogs. In GLP, 28-day (once daily, 7 days per week) studies, compound A22 was administered as a di-HCl salt or di-p-toluenesulfonate salt by oral gavage. The results are summarized in Tables 1 and 2, where HNSTD is highest nonseverely toxic dose; NOAEL is no-observed-adverse-effect-level; and STDio is severely toxic dose in 10%.
REPORTED_METRIC: Cmax (ng/mL)
Numbers only, in ng/mL.

Lookup: Bench note: what Cmax did "Cn1ncc(-c2nc(N[C@H]3CC[C@H](N)CC3)ncc2Cl)c1CC1CC1" show?
Found: 34.4

====

Test: Steady state toxicokinetics of compound A22 in Beagle dogs (28-day study)
Conditions: dog, in vivo, female dogs, 0.06 mg/kg/day (NOAEL), oral gavage
Protocol: The toxicology studies of compound A22 were performed in Sprague Dawley rats and Beagle dogs. In GLP, 28-day (once daily, 7 days per week) studies, compound A22 was administered as a di-HCl salt or di-p-toluenesulfonate salt by oral gavage. The results are summarized in Tables 1 and 2, where HNSTD is highest nonseverely toxic dose; NOAEL is no-observed-adverse-effect-level; and STDio is severely toxic dose in 10%.
REPORTED_METRIC: AUC(0-t)

Lookup: Bench note: what AUC(0-t) did Cn1ncc(-c2nc(N[C@H]3CC[C@H](N)CC3)ncc2Cl)c1CC1CC1 [A22] show?
Found: 129 ng·h/mL

====

Assay: Steady state toxicokinetics of compound A22 in Beagle dogs (28-day study)
Conditions: dog, in vivo, female dogs, 0.2 mg/kg/day (HNSTD), oral gavage
REPORTED_METRIC: AUC(0-t) (ng·h/mL)
Numbers only, in ng·h/mL.

Lookup: Bench note: what AUC(0-t) did Cn1ncc(-c2nc(N[C@H]3CC[C@H](N)CC3)ncc2Cl)c1CC1CC1 [A22] show?
Found: 471

All figures here come from patent US20240207268A1.
